Assay: HepG2 cell viability effects, profiling panel, calcein-AM fluorescence, 48 h, basal (AID 1164); further: test concentration not given here
Conditions: higher = more signal
Reported z-score values for the following compounds.
quantity.name: z-score

[[record]]
substance_smiles = "CCCCCCc1nc(CCCc2cc3c(c(CCCCCC)n2)[Si](C(C)C)(C(C)C)OC3)cc2c1[Si](C(C)C)(C(C)C)OC2"
quantity_name = "z-score"
quantitative_result = -1.47

[[record]]
substance_smiles = "C[C@]1(C(=O)NCc2ccccc2)c2ccccc2C(=O)N(Cc2cc(F)cc(C(F)(F)F)c2)[C@H]1c1ccc(CO)cc1"
quantity_name = "z-score"
quantitative_result = 1.11

[[record]]
substance_smiles = "C[C@]1(C(=O)NCc2ccccc2)c2ccccc2C(=O)N(Cc2ccc(OC(F)(F)F)cc2)[C@H]1c1ccc(CO)cc1"
quantity_name = "z-score"
quantitative_result = 1

[[record]]
substance_smiles = "COC(=O)[C@@]1(Cc2ccc(F)cc2)[C@H]2c3cc(C(=O)N4CCCC4)n(Cc4cccc5ccccc45)c3C[C@H]2CN1C(=O)c1ccccc1"
quantity_name = "z-score"
quantitative_result = 0.0082

[[record]]
substance_smiles = "C=C[C@@H](COC(C)=O)N(Cc1ccccc1[N+](=O)[O-])S(=O)(=O)c1ccc(Br)cc1"
quantity_name = "z-score"
quantitative_result = -0.491

[[record]]
substance_smiles = "COCCOC(=O)N1C(=O)[C@@]2(c3ccccc31)[C@H](c1ccc(O)cc1)N1[C@H](c3ccccc3)[C@H](c3ccccc3)OC(=O)[C@H]1[C@@H]2C(=O)N1CCc2cc(OC)c(OC)cc2C1"
quantity_name = "z-score"
quantitative_result = 2.31

[[record]]
substance_smiles = "O=C1N(CCS(=O)(=O)c2ccccc2)Cc2ccccc2C[C@]12N=C(c1ccc(OCCCO)cc1)O[C@@H]2c1ccccc1"
quantity_name = "z-score"
quantitative_result = 1.17


====

Tested on: Sam68 (KHDRBS1)
Experiment: Sam68 small-molecule binders, primary screen, biochemical, small-molecule microarray, 635 nm fluorescence (AID 1125);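 further: score merges 667 nm channel intensity with signal to noise over triplicate slides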
Conditions: small-molecule microarray binding, higher = more signal
I would appreciate it if you labelled entries 1 when composite z-score is 1 or higher, otherwise 0.

[[record]]
compound = "COC(=O)C[C@H]1O[C@]2(C(=O)N(Cc3ccccc3)c3ccc(NC(C)=O)cc32)[C@@H](C)[C@@H]1[Si](C)(C)c1ccc(OC)cc1"
assigned_label = 1

[[record]]
compound = "CCOC(=O)C1=CCC(c2ccc([N+](=O)[O-])cc2)N(S(=O)(=O)c2ccc(C)cc2)C1 (stereo not given)"
assigned_label = 0

[[record]]
compound = "COc1ccc(C(O)C2C=CC3C(=O)N(c4ccccc4)C(=O)C3N2Nc2ccc([N+](=O)[O-])cc2)cc1OCc1ccccc1 (stereo not given)"
assigned_label = 1

[[record]]
compound = "CCCCC(O)C1C=CC2C(=O)N(C3CCCCC3)C(=O)C2N1Nc1ccc(OC)cc1 (stereo not given)"
assigned_label = 1

[[record]]
compound = "[N-]=[N+]=Nc1ccccc1C[C@]1(C(=O)NCCN2CCOCC2)N=C(c2ccc(OCCCO)cc2)O[C@H]1c1ccccc1"
assigned_label = 1

[[record]]
compound = "O=C(NCc1ccccc1)[C@]1(CCS(=O)(=O)c2ccccc2)N=C(c2ccc(OCCCO)cc2)O[C@@H]1c1ccccc1"
assigned_label = 1

[[record]]
compound = "COCCOC(=O)N1C(=O)[C@@]2(c3cc(C#CCNC(N)=O)ccc31)[C@H](c1ccc(O)cc1)N1[C@H](c3ccccc3)[C@H](c3ccccc3)OC(=O)[C@H]1[C@@H]2C(=O)Nc1nc2ccccc2s1"
assigned_label = 0

[[record]]
compound = "C=CCC(OC(C)=O)[C@@H]1[C@@H](N(Cc2ccc(-c3ccccc3)cc2)C(=O)Cc2ccc(F)cc2)c2cc(OCCCO)ccc2N1C(=O)c1ccc2ccccc2n1 (stereo not given in full)"
assigned_label = 0

[[record]]
compound = "NCCCCCNC(=O)[C@H]1C[C@H]2C(=O)NCC(=O)N2[C@H]1c1cccc(OCCO)c1"
assigned_label = 1

[[record]]
compound = "C=CC(=C)C1=CCO[C@@H]1[C@H]1CCCN1S(=O)(=O)c1ccccc1[N+](=O)[O-]"
assigned_label = 0

[[record]]
compound = "O=C1OCCC=C[C@H]2OC34C=CCN(Cc5ccccc5)C(=O)[C@H]3N(CCCCCO)C(=O)[C@@H]4C12 (stereo not given in full)"
assigned_label = 0

[[record]]
compound = "CC(C)OC(=O)CC(=O)CC(O)c1ccc(C#N)cc1 (stereo not given)"
assigned_label = 0

[[record]]
compound = "O=C(OCCF)C1=CCC(c2cccc(Cl)c2)O1 (stereo not given)"
assigned_label = 0

[[record]]
compound = "CN1C(=O)C2C(C1=O)C1C=C(CCCO)C2C(c2cccs2)N1C (stereo not given)"
assigned_label = 0

[[record]]
compound = "CCC(CC)C(O)C1C=CC2C(=O)N(c3ccccc3)C(=O)C2N1Nc1ccc(C#N)cc1 (stereo not given)"
assigned_label = 1

[[record]]
compound = "CCOC(=O)C[C@H]1[C@H](OC(=O)c2ccc(-c3ccccc3)cc2)[C@@H](NC(=O)c2ccc3ccccc3c2)c2cc(OCCCO)ccc2N1C(=O)Cc1ccc(OC)cc1"
assigned_label = 0

[[record]]
compound = "CCOC(=O)C[C@H]1[C@H](OC(=O)c2ccc(C(=O)c3ccccc3)cc2)[C@@H](NC(=O)C2CCCCC2)c2cc(OCCCO)ccc2N1C(=O)c1ccccc1"
assigned_label = 1

[[record]]
compound = "CC(C)NC(=O)[C@@]1(Cc2ccccc2I)c2ccccc2C(=O)N(Cc2ccccc2)[C@H]1c1ccc(CO)cc1"
assigned_label = 1

[[record]]
compound = "COC(=O)[C@@]1(Cc2ccc(F)cc2)[C@H]2c3cc(C(=O)N4CCCC4)n(Cc4cccc5ccccc45)c3C[C@H]2CN1C(=O)c1ccccc1"
assigned_label = 1

[[record]]
compound = "COCCOC(=O)N1C(=O)[C@@]2(c3cc(C#CC4(O)CCCCCC4)ccc31)[C@H](C(=O)N1CCCCCCC1)[C@H]1C(=O)O[C@H](c3ccccc3)[C@H](c3ccccc3)N1[C@@H]2c1ccccc1OCCO"
assigned_label = 1

[[record]]
compound = "COC(=O)[C@@]1(Cc2ccccc2)[C@H]2c3cc(C(=O)N4CCCC4)n(C)c3C[C@H]2CN1C(=O)c1ccccc1"
assigned_label = 0

[[record]]
compound = "CCCCC(CC)C(O)C1C=CC2C(=O)N(c3ccccc3)C(=O)C2N1Nc1ccccc1 (stereo not given)"
assigned_label = 0

[[record]]
compound = "Cc1ccc(S[C@]2(C(=O)O)CC(=O)N(C3Cc4ccccc4C3)[C@@H]2c2ccc(CO)cc2I)cc1"
assigned_label = 0

[[record]]
compound = "COC(=O)[C@@]1(Cc2ccccc2)[C@H]2c3cc(C(=O)N(C)C)n(Cc4c(-c5ccccc5)noc4C)c3C[C@H]2CN1C(=O)c1ccccc1"
assigned_label = 0

[[record]]
compound = "COc1ccc(CCNC(=O)[C@@]2(c3ccc([N+](=O)[O-])cc3)CC(=O)N(CC34CC5CC(CC(C5)C3)C4)[C@@H]2c2ccc(CO)cc2)cc1"
assigned_label = 1

[[record]]
compound = "CC(C)c1ccc(NN2C(C(O)c3ccc(N(C)C)cc3)C=CC3C(=O)N(c4ccccc4)C(=O)C32)cc1 (stereo not given)"
assigned_label = 1

[[record]]
compound = "Cc1ccccc1C(O)C1C=CC2C(=O)N(C)C(=O)C2N1Nc1ccccc1 (stereo not given)"
assigned_label = 1

[[record]]
compound = "CC=CC(O)C1C=CC2C(=O)N(c3ccccc3)C(=O)C2N1Nc1ccc(C(C)C)cc1 (stereo not given)"
assigned_label = 1


====

Test: basal RPMI8226 mitochondrial membrane potential changes, profiling panel, cell-based, JC-1 fluorescence, 24 h, 100 nL compound (AID 1169); further: test concentration not given here
Settings: RPMI8226 myeloma, JC-1 mitochondrial potential fluorescence, higher = more signal
The entries below come with measured z-score values attached.
quantity.name: z-score

[[record]]
molecule = "C=CCNC(=O)[C@@H]1[C@H]2C(=O)O[C@H](c3ccccc3)[C@H](c3ccccc3)N2[C@H](c2ccccc2OCCO)[C@@]12C(=O)Nc1ccc(C#CC3=CCCCC3)cc12"
quantity_name = "z-score"
result = -0.853

[[record]]
molecule = "Cc1ccc(F)cc1S(=O)(=O)N[C@@H]1CCN(Cc2ccc(-c3ccccc3)cc2)C1"
quantity_name = "z-score"
result = -0.69

[[record]]
molecule = "CC(C)NC(=O)[C@@H]1c2ccccc2C(=O)N(Cc2ccccc2Cl)[C@H]1c1ccc(CO)cc1"
quantity_name = "z-score"
result = -0.195

[[record]]
molecule = "CCCCC(O)C1C=CC2C(=O)N(C3CCCCC3)C(=O)C2N1Nc1ccc(OC)cc1 (centres undefined)"
quantity_name = "z-score"
result = -0.111


====

Assay: MM1S myeloma cell viability, profiling panel, resazurin fluorescence, basal, 24 h, PK04 Diversity Set (AID 1174);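 further: MM1S multiple myeloma cell line; test concentration not given here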
Conditions: higher = more signal, called active from +8 up or from −8 down
quantity.name: z-score

[[record]]
compound = "C=CCC(OC(C)=O)[C@@H]1[C@@H](N(Cc2ccc(-c3ccccc3)cc2)C(=O)Cc2ccc(F)cc2)c2cc(OCCCO)ccc2N1C(=O)c1ccc2ccccc2n1 (some centres undefined)"
quantitative_result = 1.08

[[record]]
compound = "CC(C)c1ccc(NN2C(C(O)c3ccc(N(C)C)cc3)C=CC3C(=O)N(c4ccccc4)C(=O)C32)cc1 (centres undefined)"
quantitative_result = -0.683

[[record]]
compound = "Cc1cc(C)c(C(O)C2C=CC3C(=O)N(c4ccccc4)C(=O)C3N2Nc2ccc(C#N)cc2)c(C)c1 (centres undefined)"
quantitative_result = 0.0952

[[record]]
compound = "COc1ccc(C(=O)Nc2cccc(CN3C(=O)[C@]4(O[C@H](CC(=O)N5CCC[C@H]5CO)[C@@H]([Si](C)(C)c5ccc(OC)cc5)[C@@H]4C)c4ccccc43)c2)cc1"
quantitative_result = -2.7

[[record]]
compound = "COc1ccc(C#Cc2ccc3c(c2)[C@]2(C(=O)N3)[C@H](C(=O)NC[C@H](O)c3ccccc3)[C@H]3C(=O)O[C@H](c4ccccc4)[C@H](c4ccccc4)N3[C@@H]2c2ccccc2OCCO)cc1"
quantitative_result = -4.48

[[record]]
compound = "O=C1O[C@@H](c2ccccc2)[C@@H](c2ccccc2)N2[C@@H](c3ccc(O)cc3)[C@]3(C(=O)Nc4ccc(C#CC5=CCCCC5)cc43)[C@@H](C(=O)O)[C@H]12"
quantitative_result = 1.23

[[record]]
compound = "O=C1O[C@H](c2ccccc2)[C@H](c2ccccc2)N2[C@H]1[C@@H](C(=O)O)[C@]1(C(=O)Nc3ccc(C#CC4=CCCCC4)cc31)[C@H]2c1ccc(OCCO)cc1"
quantitative_result = 0.533

[[record]]
compound = "COC(=O)c1ccc(C(O)C2C=CC3C(=O)N(C)C(=O)C3N2NC(=O)OC(C)(C)C)o1 (centres undefined)"
quantitative_result = -0.29

[[record]]
compound = "COC(=O)C(CC#Cc1ccc2c(c1)[C@]1(C(=O)N2)[C@H](c2ccc(OCCO)cc2)N2[C@H](c3ccccc3)[C@H](c3ccccc3)OC(=O)[C@H]2[C@@H]1C(=O)NC[C@H](O)c1ccccc1)C(=O)OC"
quantitative_result = 0.343

[[record]]
compound = "CC(C)NC(=O)[C@@H]1c2ccccc2C(=O)N(Cc2ccccc2Cl)[C@H]1c1ccc(CO)cc1"
quantitative_result = -0.27

[[record]]
compound = "Cc1ccccc1C(O)C1C=CC2C(=O)N(C)C(=O)C2N1N1CCCCC1 (centres undefined)"
quantitative_result = -1.24

[[record]]
compound = "CC(C)C(=C=CC[C@H](O)c1ccccc1OCCO)C[C@H](O)c1ccccn1"
quantitative_result = 0.34

[[record]]
compound = "CC(=O)C1=CCC(c2ccccc2)N(S(=O)(=O)c2ccc(C)cc2)C1 (centres undefined)"
quantitative_result = -0.551

[[record]]
compound = "CCOC(=O)C1=CCC(c2ccc([N+](=O)[O-])cc2)N(S(=O)(=O)c2ccc(C)cc2)C1 (centres undefined)"
quantitative_result = -1.1

